Sourced from patent US12391697B2

Listed next: entries and their corresponding pIC50.
molecular target: BTK (Homo sapiens (Human), UniProt Q06187)
Sequence (Q06187 whole entry): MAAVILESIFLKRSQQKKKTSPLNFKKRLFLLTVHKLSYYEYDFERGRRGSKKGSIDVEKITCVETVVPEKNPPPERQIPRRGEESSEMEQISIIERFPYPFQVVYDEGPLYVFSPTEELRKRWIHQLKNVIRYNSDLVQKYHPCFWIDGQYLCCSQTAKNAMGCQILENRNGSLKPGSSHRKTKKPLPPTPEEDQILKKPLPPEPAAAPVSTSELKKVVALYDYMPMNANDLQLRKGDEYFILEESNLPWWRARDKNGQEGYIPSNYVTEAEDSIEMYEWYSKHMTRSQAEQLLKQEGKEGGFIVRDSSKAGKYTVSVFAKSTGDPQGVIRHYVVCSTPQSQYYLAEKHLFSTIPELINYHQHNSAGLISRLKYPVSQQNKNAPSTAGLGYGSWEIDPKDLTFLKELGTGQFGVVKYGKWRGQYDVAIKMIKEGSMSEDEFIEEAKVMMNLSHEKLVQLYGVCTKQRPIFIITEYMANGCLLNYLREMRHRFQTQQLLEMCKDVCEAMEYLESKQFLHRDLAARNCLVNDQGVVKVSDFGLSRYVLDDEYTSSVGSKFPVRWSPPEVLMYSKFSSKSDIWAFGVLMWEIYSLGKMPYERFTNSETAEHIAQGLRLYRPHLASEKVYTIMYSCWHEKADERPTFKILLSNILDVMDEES
pIC50: −log10 of the molar value. Counter-ions that a name gives are not always drawn.
assay-endpoint: pIC50

1) Cc1cc(-c2ncnn3cc(N4CCC(F)C4)cc23)ccc1CNC(=O)c1noc(C(C)(C)C)n1 (centres unmarked) [Example 11, trifluoroacetate] ... ≥ 9.00
2) Cc1cc(-c2ncnn3cc(-c4cnn(C)c4C)cc23)ccc1CNC(=O)c1coc(C(C)(C)C)n1 ... ≥ 9.00
3) Cc1cc(-c2ncnn3cc(N4CCOCC4)cc23)ccc1CNC(=O)c1nc(C(C)(C)C)no1 ... ≥ 9.00
4) Cc1cc(-c2ncnn3cncc23)ccc1CNC(=O)c1noc(C(C)(C)C)n1 ... 8.00 to 9.00
5) Cc1cc(-c2ncnn3cc(-c4cnsc4)cc23)ccc1CNC(=O)c1noc(C(C)(C)C)n1 ... < 8.00
6) CC(C)(C)c1nc(C(=O)NCc2cc(F)c(-c3ncnn4cccc34)cc2Cl)co1 ... < 8.00
7) Cc1cc(-c2ncnn3cccc23)ccc1CNC(=O)c1ccn(C(C)(C)C)n1 ... < 8.00
8) Cc1cc(-c2ncnn3cc(N4CCOCC4)cc23)ccc1CNC(=O)c1ccn(C(C)(C)C)n1 ... 8.00 to 9.00
9) CC=CC(=O)n1cc(-c2cc3c(-c4ccc(CNC(=O)c5noc(C(C)(C)C)n5)c(C)c4)ncnn3c2)cn1 ... ≥ 9.00
10) Cc1cc(-c2ncnn3cc(N4CCn5ccnc5C4)cc23)ccc1CNC(=O)c1noc(C(C)(C)C)n1 ... ≥ 9.00
11) Cc1cc(-c2ncnn3cc(N4CCC(F)(F)C4)cc23)ccc1CNC(=O)c1noc(C(C)(C)C)n1 [Example 12, trifluoroacetate] ... ≥ 9.00
12) COCc1cc2c(-c3ccc(CNC(=O)c4noc(C(C)(C)C)n4)c(C)c3)ncnn2c1 [Example 77, hydrochloride] ... 8.00 to 9.00
13) COC1CN(c2cc3c(-c4ccc(CNC(=O)c5noc(C(C)(C)C)n5)c(C)c4)ncnn3c2)C1 ... ≥ 9.00
14) C=CC(=O)n1cc(-c2cc3c(-c4ccc(CNC(=O)c5noc(C(C)(C)C)n5)c(C)c4)ncnn3c2)cn1 ... ≥ 9.00
15) Cc1cc(-c2ncnn3cc(N4C[C@@H](C)O[C@@H](C)C4)cc23)ccc1CNC(=O)c1noc(C(C)(C)C)n1 ... ≥ 9.00
16) Cc1cc(-c2ncnn3cnc(C)c23)ccc1CNC(=O)c1noc(C(C)(C)C)n1 ... 8.00 to 9.00
17) C#Cc1cc2c(-c3ccc(CNC(=O)c4noc(C(C)(C)C)n4)c(C)c3)ncnn2c1 [Example 76, trifluoroacetate] ... 8.00 to 9.00
18) Cc1cc(-c2ncnn3cc(N4CCN(C)[C@H](C)C4)cc23)ccc1CNC(=O)c1noc(C(C)(C)C)n1 (single isomer, unassigned) ... ≥ 9.00
19) Cn1cc(-c2cc3c(-c4ccc(CNC(=O)c5noc(C(C)(C)C)n5)c(CC(F)F)c4F)ncnn3c2)cn1 ... ≥ 9.00
20) CCn1cc(-c2cc3c(-c4ccc(CNC(=O)c5noc(C(C)(C)C)n5)c(C)c4)ncnn3c2)cn1 ... ≥ 9.00
21) Cc1cc(-c2ncnn3cc(-c4cnn(C)c4)cc23)ccc1CNC(=O)c1cn(C(C)(C)C)nn1 ... ≥ 9.00
22) CC(C)(C)c1nc(C(=O)NCc2ccc(-c3ncnn4cccc34)c(F)c2C2CC2)no1 [Example 62, trifluoroacetate] ... 8.00 to 9.00
23) Cn1cc(-c2cc3c(-c4ccc(CNC(=O)c5cnn(C(C)(C)C)c5)c(C(F)(F)F)c4)ncnn3c2)cn1 ... ≥ 9.00
24) Cc1cc(-c2ncnn3cc(C4=CCOCC4)cc23)ccc1CNC(=O)c1coc(C(C)(C)C)n1 ... ≥ 9.00
25) CC(C)(C)n1nnc(C(=O)NCc2cc(F)c(-c3ncnn4cccc34)cc2Cl)n1 ... < 8.00
26) Cc1cc(-c2ncnn3cc(C4CCOC4)cc23)ccc1CNC(=O)c1noc(C(C)(C)C)n1 (centres unmarked) ... 8.00 to 9.00
27) Cn1cc(-c2cc3c(-c4ccc(CNC(=O)c5noc(C(C)(C)C)n5)c(CC(F)F)c4)ncnn3c2)cn1 ... ≥ 9.00
28) Cc1cc(-c2ncnn3cc(-c4cccnc4)cc23)ccc1CNC(=O)c1noc(C(C)(C)C)n1 ... ≥ 9.00
29) Cn1cc(-c2cc3c(-c4ccc(CNC(=O)c5nnc(C(C)(C)C)o5)c(C(F)F)c4F)ncnn3c2)cn1 ... ≥ 9.00
